System Tested: Short transient receptor potential channel 4 (Mus musculus)
Protocol Details: inhibitors of mouse TRPC4 channel, confirmation, cell-based, second round, Fluo4, HEK293 TRPC4beta/mu-opioid, 1 µM (AID 2637)
Run Parameters: Fluo4 calcium flux, DAMGO, at 1 µM
The source made the active and inactive calls.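 The calls were made as follows: active = calcium signal ratio cut to more than 3 SD under the fully stimulated control mean yet still positive, in both repeats and the primary screen; inactive = the rest.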
Permitted responses: 1 (yes) (active), 0 (no) (inactive)

Ask: What did this assay record as the result for `CCC(=O)C(CCN1CCOCC1)(c1ccccc1)c1ccccc1` ?
Reply: 0 (no)

Ask: What did this assay record as the result for CC(Cc1ccccc1)NCC(=O)Nc1cc(N(C)C)nc2ccccc12 (centres undefined) ?
Reply: 0 (no)

Ask: What did this assay record as the result for `O=[N+]([O-])c1ccc(N2CCNCC2)c(Cl)c1` ?
Reply: 0 (no)

Ask: What did this assay record as the result for `CCc1ccc(OCCCN=C(C)c2c(O)n(C)c(=O)n(C)c2=O)cc1` ?
Reply: 0 (no)

Ask: What did this assay record as the result for O=C(c1ccc(Cl)cc1)C1CCCN(C2CCSCC2)C1 (centres undefined) ?
Reply: 1 (yes)

Ask: What did this assay record as the result for `Clc1ccc2c(c1)C(c1ccccc1Cl)=NCc1nnc(N3CCN(CCOc4ccccc4)CC3)n1-2` ?
Reply: 0 (no)

Ask: What did this assay record as the result for `Clc1ccc(OCC#CCN2CCCC2)cc1` ?
Reply: 0 (no)

Ask: What did this assay record as the result for CC(Cc1ccccc1Sc1ccccc1O)N(C)C (centres undefined) ?
Reply: 1 (yes)

Ask: What did this assay record as the result for `Cc1ccc(C)c(NC(=S)NCCc2cnc[nH]2)c1` ?
Reply: 0 (no)

Ask: What did this assay record as the result for `CCN(CC)CC(=O)Nc1ccc(Cl)cc1C(=O)c1ccccc1` ?
Reply: 0 (no)

---

System Tested: Short transient receptor potential channel 4 (Mus musculus) (UniProt Q9QUQ5)
Sequence (Q9QUQ5 whole entry, looked up): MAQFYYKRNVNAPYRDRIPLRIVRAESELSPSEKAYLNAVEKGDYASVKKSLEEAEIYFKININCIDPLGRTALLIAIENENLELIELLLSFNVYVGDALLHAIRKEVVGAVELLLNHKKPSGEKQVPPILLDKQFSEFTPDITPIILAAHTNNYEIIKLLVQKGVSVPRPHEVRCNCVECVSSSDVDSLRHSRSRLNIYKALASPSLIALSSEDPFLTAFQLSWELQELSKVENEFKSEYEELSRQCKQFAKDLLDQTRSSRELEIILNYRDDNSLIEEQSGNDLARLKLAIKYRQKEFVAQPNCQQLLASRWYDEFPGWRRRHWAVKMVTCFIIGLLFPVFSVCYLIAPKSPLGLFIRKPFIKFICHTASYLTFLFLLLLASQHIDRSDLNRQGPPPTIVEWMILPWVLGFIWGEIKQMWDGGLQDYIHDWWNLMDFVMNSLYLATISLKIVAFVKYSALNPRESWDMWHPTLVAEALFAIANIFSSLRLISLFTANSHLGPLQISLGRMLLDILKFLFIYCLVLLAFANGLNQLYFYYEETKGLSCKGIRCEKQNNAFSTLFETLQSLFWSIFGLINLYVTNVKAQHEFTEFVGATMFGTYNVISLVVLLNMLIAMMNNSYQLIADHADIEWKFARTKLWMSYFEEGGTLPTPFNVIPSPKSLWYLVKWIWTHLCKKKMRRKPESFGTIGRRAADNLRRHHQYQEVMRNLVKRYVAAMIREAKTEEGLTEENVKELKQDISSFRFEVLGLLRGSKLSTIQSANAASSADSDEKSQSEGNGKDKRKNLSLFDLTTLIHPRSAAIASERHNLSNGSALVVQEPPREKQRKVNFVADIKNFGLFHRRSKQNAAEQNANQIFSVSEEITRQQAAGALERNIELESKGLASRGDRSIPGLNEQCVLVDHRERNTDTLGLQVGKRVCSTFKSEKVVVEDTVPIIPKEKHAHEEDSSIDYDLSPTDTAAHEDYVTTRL
Protocol Details: inhibitors of mouse TRPC4 channel, confirmation, cell-based, Fluo4, HEK293 TRPC4beta/mu-opioid (AID 2636)
Run Parameters: DAMGO, Fluo4 calcium flux, at 10 µM; active compounds read high
The source made the active and inactive calls.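 Rule for the calls: active = calcium signal cut by more than 3 SD below the full-agonist control yet still positive, in both repeats and the earlier primary screen; inactive = the rest.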
Measurement Kind: inhibition

Use the examples below as a reference point.
CCN1CCN(Cc2cc(Br)cc(Br)c2O)CC1 : inactive
NC(N)=N/N=C/c1ccc(N(c2ccccc2)c2ccccc2)cc1 : inactive
CC(Cc1ccccc1Sc1ccccc1)N(C)C (stereo not drawn) : inactive
CCOC(=O)C(O)(c1ccc(NC(=S)NC(=O)c2ccc(Cl)cc2Cl)c(C)c1)C(F)(F)F (stereo not drawn) : inactive
CN(C)CCn1cnc2ccccc21 : inactive

Then there is this compound:
Ask: Please look at this compound and report its inhibition: `C=CCOC(=O)C1=C(C)OC(N)=C(C#N)[C@@]12C(=O)N(CC(N)=O)c1ccccc12`
Reply: inactive

---

System Tested: Potassium voltage-gated channel subfamily KQT member 2 (Rattus norvegicus) (UniProt O88943)
Sequence (O88943 whole entry, looked up): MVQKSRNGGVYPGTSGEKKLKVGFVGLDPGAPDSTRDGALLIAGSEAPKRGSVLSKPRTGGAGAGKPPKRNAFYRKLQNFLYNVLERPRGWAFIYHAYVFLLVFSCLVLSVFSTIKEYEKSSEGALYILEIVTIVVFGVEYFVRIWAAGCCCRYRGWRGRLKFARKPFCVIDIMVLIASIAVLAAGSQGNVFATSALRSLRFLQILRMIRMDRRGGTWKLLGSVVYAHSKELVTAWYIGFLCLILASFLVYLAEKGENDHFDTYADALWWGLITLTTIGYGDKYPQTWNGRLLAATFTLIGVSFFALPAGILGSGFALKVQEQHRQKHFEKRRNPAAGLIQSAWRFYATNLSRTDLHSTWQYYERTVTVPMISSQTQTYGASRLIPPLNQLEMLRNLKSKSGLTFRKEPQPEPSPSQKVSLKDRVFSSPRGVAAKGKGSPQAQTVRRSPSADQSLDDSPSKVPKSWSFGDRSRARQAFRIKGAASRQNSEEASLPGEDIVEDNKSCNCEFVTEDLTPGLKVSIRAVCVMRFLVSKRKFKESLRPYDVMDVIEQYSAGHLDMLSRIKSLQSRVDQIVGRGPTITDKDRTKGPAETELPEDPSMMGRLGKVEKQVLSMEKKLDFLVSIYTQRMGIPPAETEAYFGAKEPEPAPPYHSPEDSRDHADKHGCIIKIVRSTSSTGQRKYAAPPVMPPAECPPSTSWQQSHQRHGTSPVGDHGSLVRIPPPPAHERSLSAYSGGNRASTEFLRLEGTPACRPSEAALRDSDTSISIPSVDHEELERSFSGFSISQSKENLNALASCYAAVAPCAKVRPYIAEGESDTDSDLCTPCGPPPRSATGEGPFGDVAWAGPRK
Protocol Details: rat KCNQ2 channel potentiation, selectivity assay for KCNQ1 potentiator project, KCNQ2-CHO-K1 cells (AID 493009);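 also: assay conditions were tuned for KCNQ1 rather than KCNQ2 modulators; signal is max minus min fluorescence divided by baseline after thallium stimulus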
Run Parameters: FluxOR thallium flux fluorescence, at 10 µM, scaled: buffer 0, activator control 100
Calls of active or inactive are those of the source.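 Rule for the calls: active = mean duplicate potentiation above the buffer control mean plus 5 SD of buffer wells; inactive = the rest.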
Permitted responses: Y (active), N (inactive)

CC(=NCc1ccc(F)cc1)c1c(O)n(C)c(=O)n(C)c1=O : N
Brc1ccc2c(c1)C(OC1CN3CCC1CC3)c1ccccc1CS2 (stereo not given) : N
CC(=O)OC(C)(C)/C=C/C(=O)C(C)(O)C1[C@H](O)C[C@@]2(C)C3CC=C4C(CC[C@@H](O)C4(C)C)[C@]3(CO)C(=O)C[C@]12C (stereo not given in full) : N
CC1=CC2/C=C(\C)CCC(O)C(O)/C=C/C(=O)C23C(=O)NC(CC(C)C)C3C1C (stereo not given) : N

Ask: What did this assay record as the result for `N#Cc1c(N2CCNCC2)nc(-c2ccco2)c2c1CCCC2` ?
Reply: N

Ask: What did this assay record as the result for `O=c1c(C=NCCN2CCNCC2)c(O)n(C2CCCCC2)c(=O)n1C1CCCCC1` ?
Reply: N

Ask: What did this assay record as the result for O=C(c1ccc(-c2ccccc2)cc1)C1CCCN(Cc2ccn[nH]2)C1 (stereo not given) ?
Reply: N

Ask: What did this assay record as the result for `O=C1NC(=O)N(Cc2ccc(F)cc2)C(=O)/C1=C/c1cccs1` ?
Reply: N

Ask: What did this assay record as the result for `COc1cc(-n2c(=S)[nH]c3ccc(C)cc3c2=O)c(Cl)cc1Cl` ?
Reply: Y

Ask: What did this assay record as the result for `COc1cc(-n2c(=S)[nH]c3ccccc3c2=O)c(Cl)cc1Cl` ?
Reply: N

Ask: What did this assay record as the result for `CNc1ccc2oc(C[C@H]3O[C@@]4(CC[C@H]3C)O[C@H]([C@H](C)C(=O)c3ccc[nH]3)[C@H](C)C[C@H]4C)nc2c1C(=O)O` ?
Reply: Y

Ask: What did this assay record as the result for `CCOc1cc(CNCCc2c[nH]c3ccccc23)cc(Cl)c1OCC` ?
Reply: N

Ask: What did this assay record as the result for `Cc1ccc(/C=C2/C(=O)NC(=O)N(CCc3ccc(F)cc3)C2=O)o1` ?
Reply: N

Ask: What did this assay record as the result for `Nc1ncnc2c1ccn2[C@@H]1O[C@H](CO)[C@@H](O)[C@H]1O` ?
Reply: N

Ask: What did this assay record as the result for O=[N+]([O-])c1cccc(C2N3CCCN23)c1 (stereo not given) ?
Reply: N

Ask: What did this assay record as the result for `CCOc1cc(C=C2C(=O)NC(=O)NC2=O)ccc1OS(=O)(=O)c1ccccc1` ?
Reply: N

Ask: What did this assay record as the result for `O=[N+]([O-])c1ccc(N2CCOCC2)c2ccncc12` ?
Reply: N

Ask: What did this assay record as the result for CN1CCC(c2c[nH]c3ccccc23)C1 (stereo not given) ?
Reply: N

Ask: What did this assay record as the result for `CC/C(=C\C=C\[C@@H]1C=C[C@@H]2CCC[C@H]2[C@@H]1C(=O)c1ccc[nH]1)[C@@H]1O[C@@H]([C@@H](C)C(=O)O)CC[C@@H]1C` ?
Reply: Y

Ask: What did this assay record as the result for CCOC(=O)C1C(=O)NC2(C)CC1c1cc(OC)ccc1O2 (stereo not given) ?
Reply: N
